assayProtocol: PK studies in mice
conditionsUsed: female, CD-1, mouse, plasma, other: i.v. and i.p.
observable: half-life

# half-life (molecule: `CN1CC(C(=O)NCc2ccc3c(-c4cccc(C(N)=S)c4)cn(C4CCN(S(=O)(=O)C(F)(F)F)CC4)c3c2)C1` ) is 300 to 360 min

----------
assayProtocol: PK studies in mice
conditionsUsed: female, CD-1, mouse, plasma, ip, 30 mg/kg, blood plasma level of AS-99, i.p., time 0.25 h
observable: concentration at 0.25 h (µM)
Response body: numeric value in µM, unit text excluded.

# concentration at 0.25 h (compound: `CN1CC(C(=O)NCc2ccc3c(-c4cccc(C(N)=S)c4)cn(C4CCN(S(=O)(=O)C(F)(F)F)CC4)c3c2)C1` ) is 9.11
